Molecular target: sodium-proton exchanger of subtype 3 (NHE3) (Homo sapiens, UniProt P48764)
Construct: expressed in transfected cells
Assay: Recovery of intracellular pH (pHi) after acidification in LAP1 cells stably expressing NHE3 (BCECF fluorescence, FLIPR)
Format: cell-based
Conditions: LAP1 cells stably expressing NHE3; pH recovery after acidification; range 1 is % inhibition at 10 μM; read-out: Activity range (inhibitory effect on NHE3)
pIC50: −log10 of the molar value.
Quick reference: pIC50 of the listed items.

Entry Cc1nnnn1-c1ccc(O[C@H]2c3cc(Cl)cc(Cl)c3C[C@@H]2N2CC[C@@H](O)C2)cc1 [Example 112] ; pIC50 = 5.00 to 6.00

The recorded pIC50 for entry Cc1nnc(C)n1-c1ccc(O[C@H]2c3cc(Cl)cc(Cl)c3C[C@@H]2N2CCCN(C)CC2)c(Cl)c1 [Example 345] equals > 6.00

molecule Cc1nnc(C)n1-c1ccc(O[C@H]2c3cc(Cl)cc(Cl)c3C[C@@H]2N2CCCNCC2)c(Cl)c1 [Example 344] , pIC50 observed: > 6.00

New cases:
pIC50 recorded for this molecule, CC(=O)Nc1cccc(O[C@H]2c3cc(Cl)ccc3C[C@@H]2N2CCNCC2)c1 (racemic) [Example 657] , is 5.00 to 6.00

Lab note: measured pIC50 of Cc1nnc(C)n1-c1ccc(O[C@H]2c3cc(Cl)cc(Cl)c3C[C@@H]2NC2CCCC2)c(F)c1 [Example 746] was > 6.00

Kindly note the recorded pIC50 for N[C@@H]1CCCN([C@@H]2Cc3ccccc3[C@H]2Oc2ccc(S(N)(=O)=O)c(Cl)c2Cl)C1 (racemic) [Example 518] , which is > 6.00

Looking up Cc1cccc2c1C[C@H](N1CCCC1)[C@H]2Oc1ccc(S(N)(=O)=O)cc1 (racemic) [Example 472] , I see its pIC50 listed as 5.00 to 6.00

====

Consider the following compounds and their measured pIC50 readings.
Biological target: sodium-proton exchanger of subtype 3 (NHE3) (Homo sapiens, UniProt P48764)
Construct: expressed in transfected cells
Assay: Recovery of intracellular pH (pHi) after acidification in LAP1 cells stably expressing NHE3 (BCECF fluorescence, FLIPR)
Format: cell-based
Settings: LAP1 cells stably expressing NHE3; pH recovery after acidification; range 1 is % inhibition at 10 μM; read-out: Activity range (inhibitory effect on NHE3)
pIC50: −log10 of the molar value.

# example entries with known answers
Given item CN1CCCN([C@H]2Cc3c(Cl)cc(Cl)cc3[C@@H]2Oc2ccc(S(C)(=O)=O)cc2)CC1 (racemic) [Example 279] , the value recorded as its pIC50 is > 6.00

Note to self: pIC50 recorded for NS(=O)(=O)c1ccc(O[C@@H]2c3ccccc3C[C@H]2NC2CCC2)c(F)c1 (racemic) was > 6.00

Record CS(=O)(=O)c1ccc(O[C@H]2c3ccccc3C[C@@H]2CN2CCCC2)cc1 (racemic) , field pIC50: 5.00 to 6.00

Attention now turns to another entry.
Input CS(=O)(=O)c1ccc(O[C@H]2c3cc(Cl)cc(Cl)c3C[C@@H]2N2CCCN(CCO)CC2)cc1 [Example 385] . Output pIC50: > 6.00

====

Target: sodium-proton exchanger of subtype 3 (NHE3) (Homo sapiens)
Construct: expressed in transfected cells
Sequence (P48764 26-834): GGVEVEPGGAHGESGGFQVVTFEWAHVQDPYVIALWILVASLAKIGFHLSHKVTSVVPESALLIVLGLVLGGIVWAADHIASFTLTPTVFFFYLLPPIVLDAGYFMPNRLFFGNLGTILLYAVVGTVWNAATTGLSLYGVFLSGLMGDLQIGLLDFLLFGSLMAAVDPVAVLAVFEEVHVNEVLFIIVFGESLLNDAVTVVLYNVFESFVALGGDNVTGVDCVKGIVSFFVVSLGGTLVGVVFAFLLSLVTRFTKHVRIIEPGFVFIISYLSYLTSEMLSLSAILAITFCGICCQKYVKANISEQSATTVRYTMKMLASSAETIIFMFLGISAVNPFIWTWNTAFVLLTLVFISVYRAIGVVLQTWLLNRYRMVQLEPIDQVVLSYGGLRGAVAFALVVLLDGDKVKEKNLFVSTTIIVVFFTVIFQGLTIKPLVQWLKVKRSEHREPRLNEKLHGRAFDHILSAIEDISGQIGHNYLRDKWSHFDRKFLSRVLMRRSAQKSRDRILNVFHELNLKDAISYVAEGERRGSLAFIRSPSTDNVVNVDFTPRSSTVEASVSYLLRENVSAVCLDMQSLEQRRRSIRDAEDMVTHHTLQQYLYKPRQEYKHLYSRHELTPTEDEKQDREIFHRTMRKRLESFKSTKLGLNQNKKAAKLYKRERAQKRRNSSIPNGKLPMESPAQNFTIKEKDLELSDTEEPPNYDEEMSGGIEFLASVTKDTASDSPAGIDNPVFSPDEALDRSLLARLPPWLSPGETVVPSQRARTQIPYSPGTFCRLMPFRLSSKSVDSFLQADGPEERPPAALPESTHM
Assay: Recovery of intracellular pH (pHi) after acidification in LAP1 cells stably expressing NHE3 (BCECF fluorescence, FLIPR)
Assay type: cell-based
Details: LAP1 cells stably expressing NHE3; pH recovery after acidification; range 1 is % inhibition at 10 μM; read-out: Activity range (inhibitory effect on NHE3)
pIC50: −log10 of the molar value.
MEASURED ATTRIBUTE: pIC50

Use these answered entries as a reference point.
For the compound NS(=O)(=O)c1ccc(OC2c3ccccc3CC2N2CCCC2)cc1 (racemic) , the measured pIC50 on sodium-proton exchanger of subtype 3 (NHE3) (Homo sapiens) was > 6.00

Response field pIC50 (sodium-proton exchanger of subtype 3 (NHE3) (Homo sapiens)) for item "N#Cc1ccc(O[C@H]2c3cc(Cl)cc(Cl)c3C[C@@H]2N2CCNCC2)c(F)c1" : > 6.00

Item "CCc1nc(C)cn1-c1ccc(F)c(O[C@H]2c3cc(Cl)cc(Cl)c3C[C@@H]2N2CC[C@@H](O)C2)c1" was tested on sodium-proton exchanger of subtype 3 (NHE3) (Homo sapiens); the reported pIC50 is 5.00 to 6.00

Measured pIC50 (sodium-proton exchanger of subtype 3 (NHE3) (Homo sapiens)), entry NS(=O)(=O)c1ccc(O[C@H]2c3cc(F)ccc3C[C@@H]2N2CCCC2)cc1 (racemic) : 5.00 to 6.00

***
Form field pIC50 for item CC(=O)Nc1cccc(O[C@H]2c3ccccc3C[C@@H]2N2CC[C@@H](CO)C2)c1 (racemic) on sodium-proton exchanger of subtype 3 (NHE3) (Homo sapiens): 5.00 to 6.00

Let me check: N[C@@H]1CCCN([C@H]2CCc3ccccc3[C@@H]2Oc2ccc(F)c3cccnc23)C1 (racemic) , system sodium-proton exchanger of subtype 3 (NHE3) (Homo sapiens), measured pIC50 is > 6.00

For the compound CN(C)Cc1cccc(O[C@@H]2c3ccccc3C[C@H]2N2CCC[C@H](N)C2)c1 (racemic) , the measured pIC50 on sodium-proton exchanger of subtype 3 (NHE3) (Homo sapiens) was 5.00 to 6.00

Where these numbers come from: patent US8822449B2
